testedTarget: T1, MAGI1-2/6 (MBP fusion of the second of the six PDZ domains of MAGI1) (mouse, UniProt Q6RHR9-1 448-572)
T1 construct: source: E. coli BL21 DE3, purified (amylose column, Superdex 75 gel filtration)
T1 sequence (Q6RHR9 448-572): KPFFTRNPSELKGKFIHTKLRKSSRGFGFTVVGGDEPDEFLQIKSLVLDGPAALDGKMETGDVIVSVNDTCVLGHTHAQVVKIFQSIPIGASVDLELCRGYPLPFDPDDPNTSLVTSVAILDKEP
experimentalProtocol: SPR
conditionSet: both partners purified
Ends that are not written are not given here. * marks the point of attachment. Biotin = O=C1N[C@H]2[C@H](CS[C@H]2CCCCC(=O)*)N1
measuredAttribute: Kd (µM)
Only the number, expressed in µM, is required.

Here are 3 binders together with their reported answers.
[[record]]
binder = "Biotin-GSGAGICTIV (also called TTC24 short; source: synthetic peptide (JPT Peptide Technologies)) [TTC24_05 (short peptide of Tetratricopeptide repeat protein 24: GSGAG and the last five residues)]"
measuredattribute = "Kd"
obsvalue = 65

[[record]]
binder = "Biotin-KPGKGSETVV (also called FZD4 long; source: synthetic peptide (JPT Peptide Technologies)) [FZD4_10 (long peptide of Frizzled-4: the last ten residues)]"
measuredattribute = "Kd"
obsvalue = 23

[[record]]
binder = "Biotin-GSGAGKETRV (also called CYSLTR2 short; source: synthetic peptide (JPT Peptide Technologies)) [CYSLTR2_05 (short peptide of Cysteinyl leukotriene receptor 2: GSGAG and the last five residues)]"
measuredattribute = "Kd"
obsvalue = 30


Look up and state reported Kd for Biotin-SVWLRKETRV (also called CYSLTR2 long; source: synthetic peptide (JPT Peptide Technologies)) [CYSLTR2_10 (long peptide of Cysteinyl leukotriene receptor 2: the last ten residues)] 4
